Data origin, for the record: paper PMC10250209

molecular target: UV-DDB (DDB1-DDB2 heterodimer) (UniProt Q16531;Q92466 1-1140;1-427); experiment: EMSA; 1.5 mM Mg2+; EMSA: 8 nM DNA, 20 mM HEPES pH 7.5, 150 mM NaCl, 2 mM DTT (5 mM for SMUG1), 5% glycerol, 0.5 mg/ml BSA (0.5 mg/l [sic] for SMUG1), +/- 1.5 mM MgCl2, RT 20 min (30 min for displacement); 5% native gel, 1/2x TBE, 4 C; conditions: protein: recombinant; tags: DDB1-6xHis; DDB2-Flag; copies: 1;1; label: 3'-6FAM on top strand; blunt, 5-hmdU:G mispair
Sequence (Q16531 whole entry, chain 1 of 2): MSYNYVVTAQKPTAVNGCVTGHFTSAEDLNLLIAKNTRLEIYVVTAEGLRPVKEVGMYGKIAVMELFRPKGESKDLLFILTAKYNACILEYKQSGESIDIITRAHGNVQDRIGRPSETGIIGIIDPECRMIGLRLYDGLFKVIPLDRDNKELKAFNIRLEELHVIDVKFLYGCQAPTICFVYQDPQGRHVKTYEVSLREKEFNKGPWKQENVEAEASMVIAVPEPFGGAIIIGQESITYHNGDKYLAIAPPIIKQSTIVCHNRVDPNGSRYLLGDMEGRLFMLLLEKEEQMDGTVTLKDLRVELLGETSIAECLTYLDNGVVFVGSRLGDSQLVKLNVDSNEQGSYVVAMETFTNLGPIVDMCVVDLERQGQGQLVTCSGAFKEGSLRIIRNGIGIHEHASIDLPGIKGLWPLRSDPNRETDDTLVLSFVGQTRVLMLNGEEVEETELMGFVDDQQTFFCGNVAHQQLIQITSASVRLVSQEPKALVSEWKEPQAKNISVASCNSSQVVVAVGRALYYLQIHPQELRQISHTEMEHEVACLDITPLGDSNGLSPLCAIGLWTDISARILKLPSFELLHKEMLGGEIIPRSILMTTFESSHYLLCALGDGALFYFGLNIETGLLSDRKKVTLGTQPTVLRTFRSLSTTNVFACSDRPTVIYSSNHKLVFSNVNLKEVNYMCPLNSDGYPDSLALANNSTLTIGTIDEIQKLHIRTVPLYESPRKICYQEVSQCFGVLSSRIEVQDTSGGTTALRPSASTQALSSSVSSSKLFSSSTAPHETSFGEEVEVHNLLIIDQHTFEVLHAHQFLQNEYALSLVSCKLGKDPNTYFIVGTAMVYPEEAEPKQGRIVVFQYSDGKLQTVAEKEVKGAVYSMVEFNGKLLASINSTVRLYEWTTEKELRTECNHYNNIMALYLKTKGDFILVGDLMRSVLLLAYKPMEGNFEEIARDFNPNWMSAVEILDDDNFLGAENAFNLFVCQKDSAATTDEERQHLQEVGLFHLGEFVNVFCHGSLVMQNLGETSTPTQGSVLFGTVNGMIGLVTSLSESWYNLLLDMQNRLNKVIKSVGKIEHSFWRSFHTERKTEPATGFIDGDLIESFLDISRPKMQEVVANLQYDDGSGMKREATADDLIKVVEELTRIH
Sequence (Q92466 whole entry, chain 2 of 2): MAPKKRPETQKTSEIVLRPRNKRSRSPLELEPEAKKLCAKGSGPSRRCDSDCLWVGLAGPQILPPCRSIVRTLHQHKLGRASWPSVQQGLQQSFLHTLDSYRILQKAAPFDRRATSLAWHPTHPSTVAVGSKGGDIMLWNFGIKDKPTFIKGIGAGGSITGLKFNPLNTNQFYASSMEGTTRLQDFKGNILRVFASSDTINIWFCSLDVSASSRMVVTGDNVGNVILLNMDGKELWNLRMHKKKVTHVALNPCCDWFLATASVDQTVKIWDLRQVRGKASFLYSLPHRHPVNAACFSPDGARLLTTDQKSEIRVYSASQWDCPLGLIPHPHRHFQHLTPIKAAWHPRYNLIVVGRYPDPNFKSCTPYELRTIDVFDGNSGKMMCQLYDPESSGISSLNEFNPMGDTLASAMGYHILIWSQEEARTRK
pKd: −log10 of the molar value.
parameterMeasured: pKd

[
  {
    "binder": "5-hmdU:dG37 (dsDNA, 5-hydroxymethyl-dU (X, written U) at position 22 of top strand, opposite dG) DNA 1: CCGAGTCATTCCTGCAGCGAGUCCATGGGAGTCAAAT DNA 2: ATTTGACTCCCATGGGCTCGCTGCAGGAATGACTCGG",
    "parameterMeasured": "pKd",
    "value": 7.57
  }
]
